molecular target: SMARCA2 (Homo sapiens, UniProt P51531); experiment: SMARCA2 Western blot degradation in MV4-11 cells; type: cell-based; parameters: SMARCA2/SMARCA4 protein degradation selectivity in MV4-11 cells; endogenous in cells; host or cells: MV4-11; details: SMARCA2/4 selectivity, MV4-11 cells
Sequence (P51531 whole entry): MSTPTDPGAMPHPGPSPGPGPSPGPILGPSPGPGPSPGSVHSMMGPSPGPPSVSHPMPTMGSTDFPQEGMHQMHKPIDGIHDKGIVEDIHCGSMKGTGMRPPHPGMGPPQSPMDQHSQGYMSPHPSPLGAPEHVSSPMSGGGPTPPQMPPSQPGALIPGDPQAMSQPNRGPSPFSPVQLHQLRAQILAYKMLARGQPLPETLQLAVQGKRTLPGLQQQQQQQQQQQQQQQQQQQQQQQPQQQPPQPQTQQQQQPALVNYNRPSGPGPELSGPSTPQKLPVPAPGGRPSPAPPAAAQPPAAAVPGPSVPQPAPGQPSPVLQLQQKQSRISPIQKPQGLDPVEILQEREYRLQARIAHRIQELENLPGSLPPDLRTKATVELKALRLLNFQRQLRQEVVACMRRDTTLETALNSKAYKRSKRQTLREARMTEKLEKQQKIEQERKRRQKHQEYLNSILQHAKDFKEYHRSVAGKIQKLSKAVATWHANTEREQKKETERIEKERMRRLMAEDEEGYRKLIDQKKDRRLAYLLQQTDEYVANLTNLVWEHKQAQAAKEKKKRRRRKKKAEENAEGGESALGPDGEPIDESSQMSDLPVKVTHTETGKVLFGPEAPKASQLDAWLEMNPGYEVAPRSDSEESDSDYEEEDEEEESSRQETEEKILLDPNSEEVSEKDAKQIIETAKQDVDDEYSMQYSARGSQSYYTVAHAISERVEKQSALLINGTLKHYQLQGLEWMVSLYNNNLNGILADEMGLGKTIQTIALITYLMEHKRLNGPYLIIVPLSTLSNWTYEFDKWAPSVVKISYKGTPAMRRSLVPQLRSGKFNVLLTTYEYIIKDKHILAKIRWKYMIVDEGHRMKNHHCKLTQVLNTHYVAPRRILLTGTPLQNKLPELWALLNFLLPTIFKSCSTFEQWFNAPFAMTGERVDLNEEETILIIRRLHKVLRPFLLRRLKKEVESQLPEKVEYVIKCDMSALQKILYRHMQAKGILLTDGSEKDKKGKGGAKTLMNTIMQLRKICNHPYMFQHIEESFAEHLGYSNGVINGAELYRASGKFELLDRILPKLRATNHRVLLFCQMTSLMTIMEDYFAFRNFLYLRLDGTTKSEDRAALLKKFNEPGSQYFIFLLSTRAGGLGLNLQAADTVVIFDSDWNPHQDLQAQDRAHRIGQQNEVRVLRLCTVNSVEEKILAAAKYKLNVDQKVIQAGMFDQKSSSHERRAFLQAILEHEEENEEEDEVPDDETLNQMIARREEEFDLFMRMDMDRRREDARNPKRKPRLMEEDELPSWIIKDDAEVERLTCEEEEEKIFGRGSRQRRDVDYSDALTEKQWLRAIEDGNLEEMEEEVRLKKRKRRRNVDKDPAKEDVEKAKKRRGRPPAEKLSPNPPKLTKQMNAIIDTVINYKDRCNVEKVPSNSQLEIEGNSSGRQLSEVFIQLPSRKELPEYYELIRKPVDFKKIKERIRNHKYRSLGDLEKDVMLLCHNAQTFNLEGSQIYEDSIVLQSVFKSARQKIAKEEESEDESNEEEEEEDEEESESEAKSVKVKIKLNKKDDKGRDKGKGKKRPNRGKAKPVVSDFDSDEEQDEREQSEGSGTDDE
Measured Attribute: Selectivity in MV411

* C#Cc1ccc(CNC(=O)[C@@H]2C[C@@H](O)CN2C(=O)[C@@H](NC(=O)N2CC3(CC(N4CCC(c5cnc(N6CCc7[nH]c8nnc(-c9ccccc9O)cc8c7[C@H]6CO)nc5)CC4)C3)C2)C(C)(C)C)cc1 [I-146] | C (C (10-100 fold))
* Cc1cc(Cl)ccc1C#CCNC(=O)[C@@H]1C[C@@H](O)CN1C(=O)[C@@H](NC(=O)[C@H]1CCC2(CC1)C[C@H](N1CCC(c3cnc(N4CCN5c6cc(-c7ccccc7O)nnc6NC[C@H]5C4)nc3)CC1)C2)C(C)(C)C (single isomer, unassigned) [I-104] | C (C (10-100 fold))
* C#Cc1ccc(CNC(=O)[C@@H]2C[C@@H](O)CN2C(=O)[C@@H](NC(=O)[C@H]2CCC3(CC2)C[C@H](N2CCC(N(C)CCN4CCN5c6cc(-c7ccccc7O)nnc6NC[C@H]5C4)CC2)C3)C(C)(C)C)cc1 (single isomer, unassigned) [I-247] | C (C (10-100 fold))
* C#Cc1ccc(CNC(=O)[C@@H]2C[C@@H](O)CN2C(=O)[C@@H](NC(=O)[C@H]2CC3(C2)C[C@H](N2CCC(N4CCC(N5CCN6c7cc(-c8ccccc8O)nnc7NC[C@H]6C5)CC4)CC2)C3)C(C)(C)C)c(O)c1 (single isomer, unassigned) [I-241] | C (C (10-100 fold))
* Cc1ncsc1-c1ccc(CNC(=O)[C@@H]2C[C@@H](O)CN2C(=O)[C@@H](NC(=O)C2(F)CC2)C(C)(C)C)c(O[C@H]2CC[C@@H](N3CCC(c4cnc(N5CCc6[nH]c7nnc(-c8ccccc8O)cc7c6[C@H]5C)nc4)CC3)CC2)c1 (single isomer, unassigned) [I-31] | B (B (>100-500 fold))

Now look at this entry.
Selectivity in MV411 reported for this compound Cc1ncsc1-c1ccc(CNC(=O)[C@@H]2C[C@@H](O)CN2C(=O)[C@@H](NC(=O)[C@H]2CCC3(CC2)C[C@H](N2CCC(c4ccc(N5CCN6c7cc(-c8ccccc8O)nnc7NC[C@H]6C5)nc4)CC2)C3)C(C)(C)C)cc1 (some centres unmarked) [I-148] : B (B (>100-500 fold))

* * *

This listing pairs compounds with measured DC50.
molecular target: SMARCA2 (Homo sapiens, UniProt P51531); test: MSD SMARCA2 degradation in A549 cell line; format: cell-based; settings: A549 cells, 24 h, read-out: SMARCA2 MSD A549 degradation 24 h: Average external-Abs DC50

The cases that follow already have their DC50 on record.
- C#Cc1c(F)cc(CNC(=O)[C@@H]2C[C@@H](O)CN2C(=O)[C@@H](NC(=O)N2CC3(CC(N4CCC(c5cnc(N6CCc7[nH]c8nnc(-c9ccccc9O)cc8c7[C@H]6C)nc5)CC4)C3)C2)C(C)(C)C)cc1F [I-402]: 10 to 50 nM
- C#Cc1ccc(CNC(=O)[C@@H]2C[C@@H](O)CN2C(=O)[C@@H](NC(=O)N2CC3(CC(N4CCC(N5CCC(N6CCc7[nH]c8nnc(-c9ccccc9O)cc8c7[C@H]6C)CC5)CC4)C3)C2)C(C)(C)C)c(OC)c1 [I-183]: > 100 nM
- Cc1ncsc1-c1ccc(CNC(=O)[C@@H]2C[C@@H](O)CN2C(=O)[C@@H](NC(=O)[C@H]2CC[C@@H](c3ccc(-c4cnc(N5CCN6c7cc(-c8ccccc8O)nnc7NC[C@H]6C5)nc4)cc3)CC2)C(C)(C)C)cc1 [I-86]: < 10 nM

Now look at this entry.
The reported SMARCA2 (Homo sapiens, UniProt P51531) DC50 of C#CCOc1cc(C(C(=O)N2C[C@H](O)C[C@H]2C(=O)NCc2ccc(-c3scnc3C)cc2O[C@H]2CC[C@H](N3CCC(c4cnc(N5CCc6[nH]c7nnc(-c8ccccc8O)cc7c6[C@H]5C)nc4)CC3)CC2)C(C)C)on1 (single isomer, unassigned) [I-38] is 10 to 50 nM
